Catalogue of z-score values
method.notes: budding yeast growth modifiers under rapamycin – strain BY4716, OD600, 96 h, primary screen (AID 1091); note: test concentration not given here
measurement.parameters: S. cerevisiae BY4716 + rapamycin, higher = more signal, called active from +8 up or from −8 down
The source made the active and inactive calls.

{"molecule": "COC(=O)[C@@]1(Cc2ccc(OC)cc2)[C@H]2c3cc(C(=O)N(C)C)n(Cc4ccc(C(F)(F)F)nc4)c3C[C@H]2CN1C(=O)c1ccccc1", "z-score": "0.473 (inactive)"}

Documented z-score of `COc1ccc(C(=O)Nc2ccc(CN3C(=O)[C@]4(O[C@H](CC(=O)N5CCC[C@H]5CO)[C@@H]([Si](C)(C)c5ccc(OC)cc5)[C@@H]4C)c4ccccc43)cc2)cc1` : -0.539 (inactive)

Record summary for `CCCCC(=C=CC[C@@H](O)c1ccc(CO)o1)CCO` : reported z-score = 0.297 (inactive)

According to the records, this molecule OB1C=CCC(CCc2ccccc2)O1 (stereo not given) displays z-score of -0.762 (inactive)

Noted for `COCCOC(=O)N1C(=O)[C@@]2(c3cc(C#CC4(O)CCCCCC4)ccc31)[C@H](c1ccccc1OCCO)N1[C@H](c3ccccc3)[C@H](c3ccccc3)OC(=O)[C@H]1[C@@H]2C(=O)N1CCc2cc(OC)c(OC)cc2C1` : its z-score reads 5.86 (inactive)

Entry source: PubChem BioAssay
